Biological target: mouse VISTA (mVISTA) (Mus musculus, UniProt Q9D659)
Construct: expressed in transfected cells; host or cells: Human embryonic kidney 293T cells
Sequence (Q9D659 33-308): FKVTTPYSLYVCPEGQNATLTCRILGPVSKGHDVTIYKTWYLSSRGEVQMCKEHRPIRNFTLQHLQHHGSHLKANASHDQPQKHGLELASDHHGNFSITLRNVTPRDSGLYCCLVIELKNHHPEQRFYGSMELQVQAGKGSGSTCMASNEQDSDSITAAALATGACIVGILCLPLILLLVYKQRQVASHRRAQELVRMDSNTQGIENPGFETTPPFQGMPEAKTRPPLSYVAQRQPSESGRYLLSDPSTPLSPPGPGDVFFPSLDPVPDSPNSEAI
Test: Cell-Based Binding High-Content Assay For mVISTA (HC CBA mVISTA)
Conditions: read-out: HC CBA mVISTA IC50
Positions of bridges follow the written chain, without caps; N, C: chain ends. Non-standard residues stand in square brackets, D forms with d. Residues, ends and D or L forms follow the SMILES beside them. Phe(4-CONH2) = NC(=O)c1ccc(C[C@H](N)C(=O)O)cc1; Ahp(2) = CCCCC[C@H](N)C(=O)O; NMeNle = CCCC[C@H](NC)C(=O)O; NHexGly = CCCCCCNCC(=O)O
Quantity kind: IC50 (µM)
Answers are plain numbers, in µM.

Notebook entry, mouse VISTA (mVISTA) (Mus musculus, UniProt Q9D659) assay: IC50 of CCCCCCN1CC(=O)N[C@@H](Cc2ccc(O)cc2)C(=O)N[C@@H](CC(C)C)C(=O)N[C@@H](CC(N)=O)C(=O)N[C@@H](CCCNC(=N)N)C(=O)N(C)[C@@H](CCCC)C(=O)N[C@@H](CCCCC)C(=O)N2CCC[C@H]2C(=O)N[C@@H](C(C)C)C(=O)N[C@@H](CO)C(=O)N[C@H](C(=O)NCC(N)=O)CSCC(=O)N[C@@H](Cc2ccc(C(N)=O)cc2)C(=O)N[C@@H](Cc2ccc(O)cc2)C(=O)N[C@@H](CC(=O)O)C1=O [compound 1213] ({CH2CO}-[Phe(4-CONH2)]YD[NHexGly]YLNR[NMeNle][Ahp(2)]PVSCG-NH2; thioether N-14) = ? 0.0271
